# TESTED_ON: human ACKR3 (Homo sapiens, UniProt P25106)
# Construct: expressed in transfected cells; host or cells: HEK293T
# Sequence (P25106 whole entry): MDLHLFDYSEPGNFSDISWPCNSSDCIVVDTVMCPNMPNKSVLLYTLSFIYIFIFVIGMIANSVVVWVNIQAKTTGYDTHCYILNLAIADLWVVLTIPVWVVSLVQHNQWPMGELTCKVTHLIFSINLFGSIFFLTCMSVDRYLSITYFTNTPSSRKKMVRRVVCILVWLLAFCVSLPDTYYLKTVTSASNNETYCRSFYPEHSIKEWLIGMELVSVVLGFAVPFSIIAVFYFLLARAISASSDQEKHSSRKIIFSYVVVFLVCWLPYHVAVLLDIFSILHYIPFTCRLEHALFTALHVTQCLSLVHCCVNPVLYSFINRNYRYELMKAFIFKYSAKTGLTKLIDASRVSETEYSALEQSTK
# Sequence (P49407 whole entry partner): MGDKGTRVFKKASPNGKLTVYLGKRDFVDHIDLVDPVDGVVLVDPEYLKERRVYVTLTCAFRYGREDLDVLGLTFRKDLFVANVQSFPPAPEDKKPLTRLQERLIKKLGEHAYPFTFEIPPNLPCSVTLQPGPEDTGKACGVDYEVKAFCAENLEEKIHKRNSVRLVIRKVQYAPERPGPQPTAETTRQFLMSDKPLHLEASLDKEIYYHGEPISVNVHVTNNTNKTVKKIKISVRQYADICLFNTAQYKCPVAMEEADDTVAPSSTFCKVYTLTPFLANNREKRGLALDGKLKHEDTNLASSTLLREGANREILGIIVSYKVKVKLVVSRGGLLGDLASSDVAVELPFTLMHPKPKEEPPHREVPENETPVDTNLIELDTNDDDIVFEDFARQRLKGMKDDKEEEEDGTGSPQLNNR
# PROTOCOL_DESCRIPTION: ACKR3 β-Arrestin recruitment assay (NanoLuc complementation, NanoBiT) in HEK293T cells
# Assay type: cell-based
# ASSAY_CONTEXT: ACKR3; HEK293T cells; average value of three independent experiments
MEASURED_METRIC: pEC50
Expect pEC50 as a plain number equal to -log10 of the molar concentration.

Previously resolved entries follow.
> print(dat)
                              line.notation  measured.metric  value.measured
1  CC(C)(C)OC(=O)N1CCN(CCNC(=O)c2cc3ccccc3s2)CC1            pEC50            5.34
2       CN(CCCNC(=O)c1cc2ccccc2s1)Cc1ccccc1            pEC50            6.11

Now let's try a different one.
// CN(CCCNC(=O)c1cc2ccccc2[nH]1)Cc1ccccc1 : pEC50 value = 5.57
